# measured-target: T1, DLL3 on CT26.DLL3 cells (Homo sapiens (Human), UniProt Q9NYJ7 27-618)
# T1 construct: CT26.DLL3 are engineered cells to express DLL3
# T1 sequence: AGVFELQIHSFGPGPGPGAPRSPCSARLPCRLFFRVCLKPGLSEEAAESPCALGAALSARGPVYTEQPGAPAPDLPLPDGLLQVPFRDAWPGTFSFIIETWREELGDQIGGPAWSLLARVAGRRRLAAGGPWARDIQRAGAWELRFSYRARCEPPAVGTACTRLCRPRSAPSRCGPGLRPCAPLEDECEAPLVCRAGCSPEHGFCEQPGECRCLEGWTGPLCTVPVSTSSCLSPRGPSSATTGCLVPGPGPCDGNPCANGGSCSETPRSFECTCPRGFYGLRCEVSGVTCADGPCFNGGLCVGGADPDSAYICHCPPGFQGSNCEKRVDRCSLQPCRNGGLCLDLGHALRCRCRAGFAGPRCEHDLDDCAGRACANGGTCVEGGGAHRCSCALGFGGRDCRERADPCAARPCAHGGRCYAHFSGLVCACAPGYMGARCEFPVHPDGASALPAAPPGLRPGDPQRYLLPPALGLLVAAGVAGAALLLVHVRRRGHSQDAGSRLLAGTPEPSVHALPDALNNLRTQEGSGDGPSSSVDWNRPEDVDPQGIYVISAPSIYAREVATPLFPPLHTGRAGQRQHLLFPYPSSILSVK
# experiment-description: [177Lu]Lu-labelled peptide on CT26.DLL3 cells, 1 h 37 C, gamma counter; A = %<=25
Bridges are numbered along the chain shown (N, C = ends). [ ]: non-standard residue; d: D form. The star is where a group is joined. DOTA = O=C(O)CN1CCN(CC(=O)O)CCN(CC(=O)*)CCN(CC(=O)O)CC1; 2Nal = N[C@@H](Cc1ccc2ccccc2c1)C(=O)O; Ile(3-Me) = CCC(C)(C)[C@H](N)C(=O)O; NMeNle = CCCC[C@H](NC)C(=O)O; Tle = CC(C)(C)[C@H](N)C(=O)O
Each entry below carries its reported % Binding.

# example entries with known answers
binder	% Binding
Ac-WT[NMeNle]CNN[2Nal]K(DOTA)DCWP-NH2 (disulfide 4-10) [Cpd No. 320]	≤ 25%
Ac-WT[Ile(3-Me)]CNN[2Nal]K(DOTA)DCWP-NH2 (disulfide 4-10) [Cpd No. 321]	≤ 25%

INPUT: Tell us which % Binding value is on record for Ac-WT[Tle]CNN[2Nal]K(DOTA)DCWP-NH2 (disulfide 4-10; SMILES CC(=O)N[C@@H](Cc1c[nH]c2ccccc12)C(=O)N[C@H](C(=O)N[C@H](C(=O)N[C@H]1CSSC[C@@H](C(=O)N[C@@H](Cc2c[nH]c3ccccc23)C(=O)N2CCC[C@H]2C(N)=O)NC(=O)[C@H](CC(=O)O)NC(=O)[C@H](CCCCNC(=O)CN2CCN(CC(=O)O)CCN(CC(=O)O)CCN(CC(=O)O)CC2)NC(=O)[C@H](Cc2ccc3ccccc3c2)NC(=O)[C@H](CC(N)=O)NC(=O)[C@H](CC(N)=O)NC1=O)C(C)(C)C)[C@@H](C)O) [Cpd No. 315]
OUTPUT: ≤ 25%
